Target: PXR (NR1I2) (Homo sapiens)
Assay: Displacement of BODIPY FL vindoline from GST-tagged human PXR LBD at 10 uM incubated for 60 mins by TR-FRET assay relative to control
Details: GST-tagged human PXR LBD (recombinant protein), probe BODIPY FL vindoline
Rule: inhibition at 1 h, 10 µM of 80% or more gives 1; anything lower gives -1.

Q: Hi team, for `COc1ccc(OC)c(-n2nnc(S(=O)(=O)c3ccc(N)cc3)c2C)c1` , is the recorded inhibition at 1 h, 10 µM at or above 80%?
Ans: 1

Q: Please do the same for `COc1cc(Cl)c(C)cc1-n1nnc(S(=O)(=O)c2ccc(C(C)(C)C)cc2)c1C` as well.
Ans: -1

Q: Please do the same for `COc1ccc(C)cc1-c1ncc(S(=O)(=O)c2ccc(C(C)(C)C)cc2)[nH]1` as well.
Ans: -1

Q: Please do the same for `COc1ccc(S(=O)(=O)c2nnn(-c3cc(OC)ccc3OC)c2C)cc1` as well.
Ans: 1

Q: Please do the same for `COc1ccc([C@H](C)O)cc1-n1nnc(S(=O)(=O)c2ccc(C(C)(C)C)cc2)c1C` as well.
Ans: 1

* * *

Molecular target: Nuclear receptor subfamily 1 group I member 2 (Homo sapiens, UniProt O75469)
Sequence (O75469 whole entry): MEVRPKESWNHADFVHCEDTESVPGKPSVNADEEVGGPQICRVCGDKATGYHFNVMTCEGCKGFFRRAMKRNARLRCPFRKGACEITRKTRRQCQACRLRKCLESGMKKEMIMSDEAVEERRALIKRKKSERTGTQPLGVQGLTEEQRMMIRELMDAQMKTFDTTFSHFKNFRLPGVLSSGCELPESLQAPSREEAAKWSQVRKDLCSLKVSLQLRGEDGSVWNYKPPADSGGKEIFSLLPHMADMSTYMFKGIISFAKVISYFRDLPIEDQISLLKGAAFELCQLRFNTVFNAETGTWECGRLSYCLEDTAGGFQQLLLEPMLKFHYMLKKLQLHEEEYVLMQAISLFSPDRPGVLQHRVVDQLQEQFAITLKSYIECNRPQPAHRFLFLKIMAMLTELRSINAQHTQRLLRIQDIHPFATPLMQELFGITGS
Experiment: Agonist activity at human PXR expressed in HepG2 cells co-expressing luciferase gene under control of CYP3A4 promoter incubated for 24 hrs by luciferase reporter assay
Entries are grouped by EC50 into these classes: bottom range (below 600 nM), center range (600 nM to below 2000 nM), top range (2000 nM or more)

Q: Which of the defined bands does the recorded EC50 of `COc1ccc(CO)cc1-n1nnc(S(=O)(=O)c2ccc(C(C)(C)C)cc2)c1C` sit within?
Ans: center range

Q: Please do the same for `COc1ccc(C)cc1-n1nnc(S(=O)(=O)c2ccc(C(C)(C)C)cc2)c1C(C)=O` as well.
Ans: bottom range

Q: Please do the same for `COc1ccc(Cl)cc1-n1nnc(S(=O)(=O)c2ccc(C(C)(C)C)cc2)c1C#N` as well.
Ans: bottom range

Q: Please do the same for `COc1ccc(OC)c(-n2cc(S(=O)(=O)c3ccc(C(C)(C)C)cc3)nn2)c1` as well.
Ans: center range

Q: Please do the same for `COc1ccc(OC)c(-n2nnc(S(=O)(=O)Cc3ccccc3)c2C)c1` as well.
Ans: top range

Q: Please do the same for `COc1ccc(OC)c(-c2nc(C)c(S(=O)(=O)c3ccc(C(C)(C)C)cc3)n2C)c1` as well.
Ans: center range

Q: Please do the same for `COc1ccc(OC)c(-c2nc(C)c(S(=O)(=O)c3ccc(C(C)(C)C)cc3)[nH]2)c1` as well.
Ans: top range

Q: Please do the same for `COc1ccc(OC)c(-n2nnc(S(=O)(=O)c3ccc(C(C)(C)C)cc3)c2C(C)=O)c1` as well.
Ans: center range

* * *

Assignment: determine reported pEC50 for the given molecules.
Target: Nuclear receptor subfamily 1 group I member 2 (Homo sapiens, UniProt O75469)
Assay: Agonist activity at human PXR expressed in HepG2 cells co-expressing luciferase gene under control of CYP3A4 promoter incubated for 24 hrs by luciferase reporter assay
The read-out pEC50 is expressed as -log10 of concentration in moles per litre.

Q: Fill blank: measured pEC50 of the molecule `COc1ccccc1-n1nnc(S(=O)(=O)c2ccc(C(C)(C)C)cc2)c1C` is ____.
Ans: 6.10

Q: Please do the same for `COc1ccc(S(=O)(=O)c2nnn(-c3cc(OC)ccc3OC)c2C)cc1` as well.
Ans: 5.77

Q: Please do the same for `COc1cc(Br)c(Cl)cc1-n1nnc(S(=O)(=O)c2ccc(C(C)(C)C)cc2)c1C` as well.
Ans: 6.22

Q: Please do the same for `COc1ccc(Cl)cc1-c1ncc(S(=O)(=O)c2ccc(C(C)(C)C)cc2)n1C` as well.
Ans: 5.92

Q: Please do the same for `COc1ccc(F)cc1-n1nnc(S(=O)(=O)c2ccc(C(C)(C)C)cc2)c1C` as well.
Ans: 6.62

Q: Please do the same for `COc1cc(C(C)C)c(C)cc1-n1nnc(S(=O)(=O)c2ccc(C(C)(C)C)cc2)c1C` as well.
Ans: 6.08

Q: Please do the same for `COc1ccc(C)cc1-c1nc(C)c(S(=O)(=O)c2ccc(C(C)(C)C)cc2)[nH]1` as well.
Ans: 5.74

Q: Please do the same for `COc1ccc(C)cc1-c1nc(C)c(S(=O)(=O)c2ccc(C(C)(C)C)cc2)n1C` as well.
Ans: 6.00

Q: Please do the same for `COC(=O)c1cc(OC)c(-n2nnc(S(=O)(=O)c3ccc(C(C)(C)C)cc3)c2C)cc1OC` as well.
Ans: 5.47

* * *

Target: Nuclear receptor subfamily 1 group I member 2 (Homo sapiens)
Assay: Displacement of BODIPY FL vindoline from GST-tagged human PXR LBD incubated for 60 mins by TR-FRET assay
PROPERTY: log10(IC50) (log10 of the value in µM)
Please be aware that the numbers have been log10-transformed from IC50 in µM.

Q: Fill blank: measured log10(IC50) of the molecule `COc1ccc(CO)cc1-n1nnc(S(=O)(=O)c2ccc(C(C)(C)C)cc2)c1C` is ____.
Ans: 0.15

Q: Please do the same for `COc1ccc(Cl)cc1-c1ncc(S(=O)(=O)c2ccc(C(C)(C)C)cc2)[nH]1` as well.
Ans: 0.11

Q: Please do the same for `COc1cc(-n2nnc(S(=O)(=O)c3ccc(C(C)(C)C)cc3)c2C)c(OC)cc1C` as well.
Ans: -0.30

Q: Please do the same for `COc1ccc(OC)c(-n2nnc(S(=O)(=O)c3ccc(C(C)(C)C)cc3)c2C#N)c1` as well.
Ans: -0.52

Q: Please do the same for `COc1cc(-n2nnc(S(=O)(=O)c3ccc(C(C)(C)C)cc3)c2C)c(OC)cc1C(C)C` as well.
Ans: 0.00

Q: Please do the same for `COc1ccc(OC)c(-n2cc(S(=O)(=O)c3ccc(C(C)(C)C)cc3)nn2)c1` as well.
Ans: 0.15

Q: Please do the same for `COc1ccc(OC)c(-c2ncc(S(=O)(=O)c3ccc(C(C)(C)C)cc3)[nH]2)c1` as well.
Ans: 0.49

Q: Please do the same for `COc1cc(Br)c(C)cc1-n1nnc(S(=O)(=O)c2ccc(C(C)(C)C)cc2)c1C` as well.
Ans: 0.34

Q: Please do the same for `COC(=O)c1cc(OC)c(-n2nnc(S(=O)(=O)c3ccc(C(C)(C)C)cc3)c2C)cc1OC` as well.
Ans: 0.36

Q: Please do the same for `COc1ccc(Cl)cc1-c1ncc(S(=O)(=O)c2ccc(C(C)(C)C)cc2)n1C` as well.
Ans: -0.26

Q: Please do the same for `COc1ccc(Cl)cc1-n1nnc(S(=O)(=O)c2ccc(C(C)(C)C)cc2)c1C(C)=O` as well.
Ans: -0.40

Q: Please do the same for `COc1ccc(Cl)cc1-n1nnc(S(=O)(=O)c2ccc(C(C)(C)C)cc2)c1C#N` as well.
Ans: -1.21

* * *

Molecular target: Nuclear receptor subfamily 1 group I member 2 (Homo sapiens)
Sequence (O75469 whole entry): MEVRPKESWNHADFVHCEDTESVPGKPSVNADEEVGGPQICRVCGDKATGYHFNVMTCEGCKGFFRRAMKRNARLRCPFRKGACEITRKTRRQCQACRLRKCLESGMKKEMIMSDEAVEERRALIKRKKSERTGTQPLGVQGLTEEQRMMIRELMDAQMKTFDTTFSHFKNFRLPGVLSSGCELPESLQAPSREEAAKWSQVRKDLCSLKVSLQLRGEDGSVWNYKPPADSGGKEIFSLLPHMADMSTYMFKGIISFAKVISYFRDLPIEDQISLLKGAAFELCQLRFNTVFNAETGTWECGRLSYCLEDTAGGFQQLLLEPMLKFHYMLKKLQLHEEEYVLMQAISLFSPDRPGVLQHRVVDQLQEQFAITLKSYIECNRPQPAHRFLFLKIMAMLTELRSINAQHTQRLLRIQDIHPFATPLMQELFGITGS
Assay: Agonist activity at human PXR expressed in HepG2 cells co-expressing luciferase gene under control of CYP3A4 promoter incubated for 24 hrs by luciferase reporter assay
PROPERTY: EC50 (µM)
Field: numeric (µM). Do not append units.

Q: Fill blank: measured EC50 of the compound `COc1cc(C(C)=O)c(C)cc1-n1nnc(S(=O)(=O)c2ccc(C(C)(C)C)cc2)c1C` is ____.
Ans: 0.4

Q: Please do the same for `COc1cc(C(C)=O)c(Cl)cc1-n1nnc(S(=O)(=O)c2ccc(C(C)(C)C)cc2)c1C` as well.
Ans: 0.26

Q: Please do the same for `COc1cc(C#N)c(Cl)cc1-n1nnc(S(=O)(=O)c2ccc(C(C)(C)C)cc2)c1C` as well.
Ans: 1

Q: Please do the same for `COc1cc(-n2nnc(S(=O)(=O)c3ccc(C(C)(C)C)cc3)c2C)c(OC)cc1Cl` as well.
Ans: 0.6

Q: Please do the same for `COc1ccc(OC)c(-c2ncc(S(=O)(=O)c3ccc(C(C)(C)C)cc3)[nH]2)c1` as well.
Ans: 0.7

Q: Please do the same for `COc1cc(C(C)C)c(Cl)cc1-n1nnc(S(=O)(=O)c2ccc(C(C)(C)C)cc2)c1C` as well.
Ans: 1.8

Q: Please do the same for `COc1ccc(OC)c(-n2nnc(S(=O)(=O)c3ccc(C)cc3)c2C)c1` as well.
Ans: 2.1

Q: Please do the same for `COc1ccc([C@H](C)O)cc1-n1nnc(S(=O)(=O)c2ccc(C(C)(C)C)cc2)c1C` as well.
Ans: 0.64
